Vascular endothelial growth factor receptor 2 (Homo sapiens) IC50, compiled from various sources.

The following molecules have reported results that may help.
* O=C(Nc1cc(F)cc(C(F)(F)F)c1)Nc1ccc(Oc2cc(NC(=O)C3CC3)ncn2)cc1Cl | 12.2 nM
* O=C(c1cc(NS(=O)(=O)c2cccc(C(F)(F)F)c2)ccc1F)c1c[nH]c2ncccc12 | ≤ 10000 nM
* Cn1cc(-c2cnc3[nH]cc(C(=O)c4cc(NS(=O)(=O)c5cccc(F)c5)ccc4F)c3c2)cn1 | ≤ 10000 nM

Exam item: Name the recorded IC50 for `COc1cc(OC)cc(N(CC2CC2)c2ccc3ncc(-n4cnc(C)c4)nc3c2)c1` .
Marked response: 501 nM

Exam item: Name the recorded IC50 for `O=C(c1cccc(F)c1)c1c[nH]c2nccc(-c3cc(F)cc(F)c3)c12` .
Marked response: ≤ 10000 nM

###

Vascular endothelial growth factor receptor 2 (Homo sapiens) IC50, compiled from various sources.

The following compounds have reported results that may help.
* CS(=O)(=O)c1ccccc1CN1C2CC1CN(c1ccc(-c3cc(N4CC(F)(F)C4)cn4ncc(C#N)c34)cn1)C2 | 80.5 nM
* COc1ccc(-c2cc3nccc(Nc4ccc5[nH]ccc5c4C)c3o2)c(OC)c1OC | < 300 nM
* C[C@@H](O)[C@@H](C)Oc1nc(Nc2ccc(Nc3ncccn3)cc2)ncc1Br | 74 nM
* O=C(Nc1ccc(Oc2cc(NC(=O)C3CC3)ncn2)c(Cl)c1)Nc1ccc(F)c(C(F)(F)F)c1 | 11.4 nM
* O=C(O)CCc1cnc2[nH]cc(C(=O)c3c(F)ccc(NS(=O)(=O)c4ccc(C(F)(F)F)cc4)c3F)c2c1 | ≤ 10000 nM

Exam item: Value wanted: IC50 (Vascular endothelial growth factor receptor 2 (Homo sapiens)) of entry `COc1cc2c(Oc3ccc(NC(=O)c4c(C)n(C)n(-c5ccccc5)c4=O)cc3F)ccnc2cc1OCC(C)(C)O`
Marked response: 40 nM

Exam item: Value wanted: IC50 (Vascular endothelial growth factor receptor 2 (Homo sapiens)) of entry `N#Cc1cnc2[nH]cc(C(=O)c3c(F)ccc(NS(=O)(=O)Cc4ccccn4)c3F)c2c1`
Marked response: ≤ 10000 nM

Exam item: Value wanted: IC50 (Vascular endothelial growth factor receptor 2 (Homo sapiens)) of entry `CCCS(=O)(=O)Nc1ccc(F)c(C(=O)c2c[nH]c3ncc(OC4CCOCC4)cc23)c1F`
Marked response: ≤ 10000 nM

Exam item: Value wanted: IC50 (Vascular endothelial growth factor receptor 2 (Homo sapiens)) of entry `COc1ncc(F)cc1CNc1ncc(Cc2c[nH]c3ncncc23)cn1`
Marked response: ≤ 10000 nM

Exam item: Value wanted: IC50 (Vascular endothelial growth factor receptor 2 (Homo sapiens)) of entry `Nc1cccc(C(=O)c2c[nH]c3ncccc23)c1`
Marked response: ≤ 10000 nM

Exam item: Value wanted: IC50 (Vascular endothelial growth factor receptor 2 (Homo sapiens)) of entry `CC(=O)Nc1cccc(-c2ccnc3[nH]ccc23)c1`
Marked response: ≤ 10000 nM

Exam item: Value wanted: IC50 (Vascular endothelial growth factor receptor 2 (Homo sapiens)) of entry `CN1CCN(CCOc2cc3ncnc(Nc4ccc(NC(=O)NC5CC5)c(Cl)c4)c3c3c2OCCO3)CC1`
Marked response: 50 to 500 nM

Exam item: Value wanted: IC50 (Vascular endothelial growth factor receptor 2 (Homo sapiens)) of entry `O=C(c1ccc(Cl)cc1)c1c[nH]c2nccc(-c3cccnc3)c12`
Marked response: ≤ 10000 nM

Exam item: Value wanted: IC50 (Vascular endothelial growth factor receptor 2 (Homo sapiens)) of entry `COc1ccc(CNc2ccc(Cc3c[nH]c4nccnc34)cn2)cn1`
Marked response: < 10000 nM

Exam item: Value wanted: IC50 (Vascular endothelial growth factor receptor 2 (Homo sapiens)) of entry `COc1cnc2[nH]cc(C(=O)c3c(F)ccc(NS(=O)(=O)CCC(F)(F)F)c3F)c2c1`
Marked response: ≤ 10000 nM

###

Vascular endothelial growth factor receptor 2 (Homo sapiens) IC50, compiled from various sources.

* CCn1cc(C(=O)Nc2ccc(Oc3ccnc4cc(OCCCN5CCCCC5)c5c(c34)OCCO5)c(F)c2)c(=O)n(-c2ccc(F)cc2)c1=O | 50 to 500 nM

Exam item: Name the recorded IC50 for `O=C(Nc1ccc(Oc2ncnc3cc(OCCCN4CCOCC4)c4c(c23)OCCO4)cc1)Nc1cc(Cl)ccc1F` .
Marked response: < 50 nM

Exam item: Name the recorded IC50 for `COc1cc2nccc(Oc3ccc(NC(=O)c4cnc(C)c(C5=CCCC5)c4O)cc3)c2cc1OC` .
Marked response: ≤ 100 nM

Exam item: Name the recorded IC50 for `COc1ccc(CN2C3CC2CN(c2cnc(-c4cc(OCCN5CCC6(CCOCC6)CC5)cn5ncc(C#N)c45)cn2)C3)cn1` .
Marked response: 801 nM

Exam item: Name the recorded IC50 for `Cc1ccc(Cl)c(C(=O)N[C@H]2[C@@H]3CN(c4ccc(-c5cc(-c6cnn(C)c6)cn6ncc(C#N)c56)cn4)C[C@@H]32)n1` .
Marked response: 10 to 50 nM

Exam item: Name the recorded IC50 for `c1coc(CNCc2c[nH]c3ncccc23)c1` .
Marked response: ≤ 10000 nM

###

Vascular endothelial growth factor receptor 2 (Homo sapiens) IC50, compiled from various sources.

• O=C(Nc1ccc(Oc2ncnc3cc(OCCCN4CCCC4)c4c(c23)OCCO4)cc1Cl)NC1CC1 = < 0.05 µM
• Cn1cc(-c2cnc3[nH]cc(C(=O)c4cccc(NS(=O)(=O)c5ccc(C(F)(F)F)cc5)c4)c3c2)cn1 = ≤ 10 µM
• Cn1cc(-c2cc(Oc3ccc(NC(=O)c4ccc(Cl)c(C(F)(F)F)c4)cc3)ccn2)cn1 = ≤ 10 µM

Exam item: Value wanted: IC50 (Vascular endothelial growth factor receptor 2 (Homo sapiens)) of entry `Fc1nc(NCc2cccnc2OC2CCCC2)ccc1Cc1c[nH]c2ncncc12`
Marked response: ≤ 10 µM

Exam item: Value wanted: IC50 (Vascular endothelial growth factor receptor 2 (Homo sapiens)) of entry CCC(C)S(=O)(=O)Nc1ccc(F)c(C(=O)c2c[nH]c3nccc(OC)c23)c1F (centres unmarked)
Marked response: ≤ 10 µM

###

pIC50: −log10 of the molar value.
Vascular endothelial growth factor receptor 2 (Homo sapiens) pIC50, compiled from various sources.

The following molecules have reported results that may help.
• CC(C)n1cc(C(=O)Nc2ccc(Oc3ccnc4cc(OCC5(N)CC5)c5c(c34)OCCO5)c(F)c2)c(=O)n(-c2ccc(F)cc2)c1=O = < 5.30
• C=CC(=O)Nc1cccc(-c2cccc3cnc(Nc4ccc(N5CCN(CCO)CC5)c(F)c4F)nc23)c1 = 6.30 to 7.00
• CCCS(=O)(=O)Nc1ccc(F)c(C(=O)c2c[nH]c3ncc(C(=O)NOC)cc23)c1F = ≥ 5.00
• Nc1nccc(-c2cc(-c3ccc4[nH]ccc4c3)ccc2O)n1 = > 6.00

Exam item: Name the recorded pIC50 for `CCOc1cc(-c2ccc(N3C[C@@H]4C[C@@](C)(NC(=O)c5c(F)cccc5Cl)C[C@@H]4C3)nc2)c2c(C#N)cnn2c1` .
Marked response: 7.00 to 7.30

Exam item: Name the recorded pIC50 for `Fc1nc(NCc2ccnc(C(F)(F)F)c2)ccc1Cc1c[nH]c2ncncc12` .
Marked response: ≥ 5.00

###

Vascular endothelial growth factor receptor 2 (Homo sapiens) IC50, compiled from various sources.

Exam item: Name the recorded IC50 for `COc1cc(OC)cc(N(CCCO)c2ccc3ncc(-c4ccnc(Cl)c4)nc3c2)c1` .
Marked response: 776 nM

Exam item: Name the recorded IC50 for `CC(=O)Nc1cccc(-c2cnc3[nH]cc(C(=O)c4cc(C)on4)c3c2)c1` .
Marked response: ≤ 10000 nM

Exam item: Name the recorded IC50 for `O=C(Nc1cc2cc(Cl)ccc2oc1=O)c1ccccc1NCc1ccncc1` .
Marked response: 200 nM

Exam item: Name the recorded IC50 for `COC(=O)c1cnc(C(C(N)=O)=C2Nc3ccccc3N2)nc1C(F)(F)F` .
Marked response: 30 nM

###

pIC50: −log10 of the molar value.
Vascular endothelial growth factor receptor 2 (Homo sapiens) pIC50, compiled from various sources.

The following molecules have reported results that may help.
* CC(C)C(=O)NC12CC3CC(C1)N(c1ccc(-c4cc(OCC(C)(C)O)cn5ncc(C#N)c45)cn1)C(C3)C2 | < 7.00
* C=CC(=O)Nc1cc2c(Nc3c(F)cc(Br)cc3F)ncnc2cc1OCCNC(C)=O | 6.90
* C[C@@H](O)[C@@H](C)Nc1nc(Nc2ccc(NC(=O)N=S(C)(C)=O)cc2)ncc1C(F)(F)F | 5.96

Exam item: Value wanted: pIC50 (Vascular endothelial growth factor receptor 2 (Homo sapiens)) of entry `CCCS(=O)(=O)Nc1ccc(F)c(C(=O)c2c[nH]c3ncc(-c4cnc(C)nc4)cc23)c1F`
Marked response: ≥ 5.00

Exam item: Value wanted: pIC50 (Vascular endothelial growth factor receptor 2 (Homo sapiens)) of entry `C=C(C)COc1cccc(-c2cnc(Nc3ccc(N4CCN(C)CC4)cc3)o2)c1`
Marked response: > 6.00

Exam item: Value wanted: pIC50 (Vascular endothelial growth factor receptor 2 (Homo sapiens)) of entry `c1cc(-c2ccc(N3CCNCC3)nc2)c2cc[nH]c2n1`
Marked response: ≥ 5.00
